Target: T1, Human CD3eg linker (human)
T1 construct: Single-chain construct; also called recombinant human CD3
T1 chain: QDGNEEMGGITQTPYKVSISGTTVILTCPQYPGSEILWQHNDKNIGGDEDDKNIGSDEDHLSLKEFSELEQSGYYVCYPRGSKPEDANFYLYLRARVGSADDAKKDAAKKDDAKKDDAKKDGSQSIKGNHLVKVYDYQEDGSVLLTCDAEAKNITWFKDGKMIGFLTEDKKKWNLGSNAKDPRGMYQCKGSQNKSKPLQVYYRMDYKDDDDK
Assay: SPR; fold vs parent H183/L072
Reported fold change of affinity values for the following binders.
Respond with the bare value in fold.

binder="H183/L072 VL V51L (antibody, name in Kabat numbering, V domains shown) VH: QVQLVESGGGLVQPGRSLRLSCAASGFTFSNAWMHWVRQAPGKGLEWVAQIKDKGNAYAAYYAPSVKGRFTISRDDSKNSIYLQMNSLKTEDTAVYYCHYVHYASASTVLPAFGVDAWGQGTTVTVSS VL: DIVMTQSPLSLPVTPGEPASISCQASQELVHMNRNTYLHWYQQKPGQAPRLLIYKLSNRFPGVPDRFSGSGSGTDFTLKISRVEAEDVGVYYCAQGTSVPFTFGQGTKLEIK" result_value=0.6
binder="H183/L072 VL T97R (antibody, name in Kabat numbering, V domains shown) VH: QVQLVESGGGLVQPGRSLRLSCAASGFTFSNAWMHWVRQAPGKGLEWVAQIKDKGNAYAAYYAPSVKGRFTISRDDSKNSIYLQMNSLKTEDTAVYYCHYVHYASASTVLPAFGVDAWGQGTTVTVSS VL: DIVMTQSPLSLPVTPGEPASISCQASQELVHMNRNTYLHWYQQKPGQAPRLLIYKVSNRFPGVPDRFSGSGSGTDFTLKISRVEAEDVGVYYCAQGTSVPFRFGQGTKLEIK" result_value=0.4

Next item in the queue.
[Q] # return recorded fold change of affinity for input H183/L072 VL M27eV (antibody, name in Kabat numbering, V domains shown) VH: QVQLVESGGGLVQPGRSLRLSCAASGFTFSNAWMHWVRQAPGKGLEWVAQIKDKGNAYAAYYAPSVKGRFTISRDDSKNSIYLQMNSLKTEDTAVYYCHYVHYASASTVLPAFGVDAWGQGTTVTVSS VL: DIVMTQSPLSLPVTPGEPASISCQASQELVHVNRNTYLHWYQQKPGQAPRLLIYKVSNRFPGVPDRFSGSGSGTDFTLKISRVEAEDVGVYYCAQGTSVPFTFGQGTKLEIK
[A] 0.8
